System: RXRa homodimer (NR concentration 180 nM)
assay.remarks: PBM binding z-score (relative to random genomic background probes); higher = stronger binding; sequences stand for … in GC…GCGATTGACAGCGTAGAATGAAGG
measure.name: PBM binding z-score
Give your answer as a number; write no unit.

Solved entries (count: 5):
{"columns": ["sequence.chain", "measure.name", "recorded.measurement"],
 "data": [
  ["CAAACTAGGTCAAAGGTCAAAGTGGAGCCAACCA", "PBM binding z-score", 10.1],
  ["CGTCCAAGGTCATAGCAGGTCAGTGAAGACAGAT", "PBM binding z-score", 5.72],
  ["TCTCGGAGGACACGAAGGTCAGAGTTTTCCAGAG", "PBM binding z-score", 2.03],
  ["TCATATAGGTAAATGCAAGGTGAAAGTCCGATCT", "PBM binding z-score", 1.36],
  ["CAAACTAGATCAAGGTCAAAGTCGGTTTGTGCCA", "PBM binding z-score", 4.18]
]}

Item under review: TCATATAGGTAATACAGGTGAAAATCGGCATCTA . Reported PBM binding z-score? 1.72

Here is the next sequence: TCTTGTAGACCAGCAGGTTAAGAAAGCTGGCCAA 0.393
